Test: reversal of MRP1-mediated doxorubicin resistance, pilot screen, H69AR cells, doxorubicin co-treatment (AID 601)
Conditions: H69AR cells + 2 uM doxorubicin, CellTiter-Glo, 72 h; measured here: viability with 2 uM doxorubicin; at 10 µM; stronger effect = lower value
# if measured viability < 80%: Criterion met  # else: Criterion not met

Here's what some known entries look like.
>  <molecule>
CC(=O)Nc1ccc(-c2nn[nH]n2)cc1Cl

>  <assigned.category>
Criterion not met

$$$$
>  <molecule>
CCN(CC)c1ccc(C(=O)n2cnc3ccccc32)cc1

>  <assigned.category>
Criterion met

$$$$

Does COCC(=O)NC(c1ccccc1)c1ccccc1 have viability strictly under 80%? Criterion met

Does the reported viability of the following molecule sit strictly below 80%? COc1ccc(CN2C(=O)c3ccccc3C2C(=O)NC2CCCC2)c(OC)c1 (stereo unspecified) Criterion not met

Please check: viability for O=C(C1CCN(c2nnc(-n3cccc3)s2)CC1)N1CCN(Cc2ccc3c(c2)OCO3)CC1 , strictly under 80% or not? Criterion not met

Bench note: check whether CCCNC(=O)N1CCN(S(=O)(=O)c2ccc(C)c(C)c2)CC1 shows viability below 80% Criterion not met

For this molecule, is viability lower than 80%? CCN(CC)C(=O)c1sc2nc(-c3cccs3)cc(-c3cccs3)c2c1N Criterion not met

# check: viability < 80% for CC(=O)N(CCc1ccccc1C)Cc1cc2cc3c(cc2[nH]c1=O)OCO3 Criterion not met

====

Test: HUVEC growth inhibition – cell-based, human, primary screen (AID 575)
Conditions: HUVEC proliferation, CellTiter-Glo luminescence, 72 h; at 10 µM; stronger effect = lower value
// classify: if (viability < 80%) Criterion met else Criterion not met

>  <compound>
c1ccc2c(-c3nc(C4CCCCC4)no3)cc(-c3ccncc3)nc2c1

>  <assigned.category>
Criterion met

$$$$

Below 80% on viability? Entry Nc1cccc(C(=O)O)c1 Criterion not met

Strictly below 80% in viability? COc1c2ccoc2nc2c(OC)c(OCC(O)C(C)(C)O)ccc12 (centres undefined) Criterion not met

Item COc1ccc(-c2ccc(=O)n(Cc3cc(=O)n4ccccc4n3)n2)cc1 : viability beneath 80%, strictly? Criterion not met

Threshold test, viability < 80%: Nc1nc2ccc(OC(F)(F)F)cc2s1 Criterion met

Lab log: compare recorded viability with 80%; is it strictly lower for COC(=O)c1cccc(S(=O)(=O)N2CCC(C)CC2)c1 ? Criterion not met

Regarding O=C(C1CCN(S(=O)(=O)c2cnc[nH]2)CC1)N1CCN(c2ncccn2)CC1 , kindly confirm whether its viability is beneath 80%. Criterion not met

# check: viability < 80% for CCC(C)c1ccc(NC(=O)C2CC2)cc1 (centres undefined) Criterion not met

For this compound, is viability lower than 80%? Cc1ccc2c(c1)CCCN2C(=O)C1CCCO1 (centres undefined) Criterion not met

Threshold test, viability < 80%: COC(=O)c1c(NC(=O)CCc2ccc(C)o2)sc(C)c1C Criterion not met

Criterion: viability strictly below 80%. Is it met by O=C(NCc1ccco1)c1c2c(nc3ccccc13)CCC2 ? Criterion not met

Please state whether viability is below 80% for CCCn1c(=O)c2[nH]c(C3CCCC3)nc2n(CCC)c1=O Criterion met

Dear reviewer, please state whether O=C(CSc1ccccc1C(=O)NCCCN1CCCC1=O)NCc1ccco1 has viability strictly beneath 80%. Criterion not met

Find out if reported viability for O=C1c2ccccc2C(=O)N1c1cccc(-c2nc3ccccc3o2)c1 is less than 80% Criterion met
